// provenance: patent US7700717B2

Examples of compounds with documented Fluorescence intensity (a.u.), Kidney follow.
# Tested on: subcutaneously implanted H69 human lung cancer
# runDescription: Ex vivo biodistribution by fiber-optic spectrofluorimetry (FOS) in tissues of mice bearing H69 tumors
# studyConditions: ex vivo, 24 hours after i.v. administration, FOS
Record the value in a.u., omitting the unit from your answer.

Some entries whose results are on file:
C[C@@H](O)[C@@H]1NC(=O)[C@H](CCCCN)NC(=O)[C@@H](Cc2c[nH]c3ccccc23)NC(=O)[C@H](Cc2c[nH]c3ccccc23)NC(=O)[C@H](Cc2ccccc2)NC(=O)CN(C(=O)[C@@H](Cc2ccccc2)NC(=O)CCCCNC(=S)Nc2ccc3c(c2)C(=O)OC32c3ccc(O)cc3Oc3cc(O)ccc32)CCSSCCN(CC(N)=O)C(=O)[C@H](Cc2ccccc2)NC1=O [Compound 70]
18
C[C@@H](O)[C@@H]1NC(=O)[C@H](CCCCN)NC(=O)[C@@H](Cc2c[nH]c3ccccc23)NC(=O)[C@H](Cc2c[nH]c3ccccc23)NC(=O)[C@H](Cc2ccccc2)NC(=O)CN(C(=O)CCCNC(=O)c2ccc3c(c2)C(=O)OC32c3ccc(O)cc3Oc3cc(O)ccc32)CCSSCCN(CC(N)=O)C(=O)[C@H](Cc2ccccc2)NC1=O [Compound 48]
15
C[C@@H](O)[C@@H]1NC(=O)[C@H](CCCCN)NC(=O)[C@@H](Cc2c[nH]c3ccccc23)NC(=O)[C@H](Cc2c[nH]c3ccccc23)NC(=O)[C@H](Cc2ccccc2)NC(=O)[C@@H](NC(=O)[C@@H](Cc2ccccc2)NC(=O)CCCNC(=S)Nc2ccc3c(c2)C(=O)OC32c3ccc(O)cc3Oc3cc(O)ccc32)CSSCCN(CC(N)=O)C(=O)[C@H](Cc2ccccc2)NC1=O [Compound 86]
23
C[C@@H](O)[C@@H]1NC(=O)[C@H](CCCCN)NC(=O)[C@@H](Cc2c[nH]c3ccccc23)NC(=O)[C@H](Cc2c[nH]c3ccccc23)NC(=O)[C@H](Cc2ccccc2)NC(=O)CN(C(=O)[C@@H](Cc2ccccc2)NC(=O)CCNC(=O)c2ccc3c(c2)C(=O)OC32c3ccc(O)cc3Oc3cc(O)ccc32)CCSSCCN(CC(N)=O)C(=O)[C@H](Cc2ccccc2)NC1=O [Compound 64]
20

As a next step, examine the compound that follows.
Q: What measured Fluorescence intensity (a.u.), Kidney goes with C[C@@H](O)[C@@H]1NC(=O)[C@H](CCCCN)NC(=O)[C@@H](Cc2c[nH]c3ccccc23)NC(=O)[C@H](Cc2c[nH]c3ccccc23)NC(=O)[C@H](Cc2ccccc2)NC(=O)CN(C(=O)[C@@H](Cc2ccccc2)NC(=O)CCNC(=S)Nc2ccc3c(c2)C(=O)OC32c3ccc(O)cc3Oc3cc(O)ccc32)CCSSCCN(CC(N)=O)C(=O)[C@H](Cc2ccccc2)NC1=O [Compound 62] ?
Result: 32
